Measured pIC50 by item
- Test system: GC3/M TK- cells
- TEST_SUMMARY: Inhibition of growth of tumor cells, thymidine kinase-deficient human colon adenocarcinoma GC3/M TK- (MTT)
- Type: cell-based
- CONDITION_NOTES: Homo sapiens, GC3/MTK-, 120 h, 5 days continuous exposure, MTT; read-out: Cell Culture IC50, GC3-M (TK-)
By convention, pIC50 is the negative base-10 log of a molar concentration.

Some compounds with known pIC50 results, for comparison:
{"columns": ["COMPOUND", "RECORDED_VALUE"],
 "data": [
  ["Cc1nc2ccc(C)c(Sc3ccncc3)c2c(=O)[nH]1", 5.22],
  ["Cc1nc2ccc(C)c(Sc3ccnc(N(C)C)c3)c2c(=O)[nH]1 [Compound 26A]", 4.74]
]}

--- query ---
IN: I am curious: what pIC50 value has been reported for Cc1ccc2nc(N)[nH]c(=O)c2c1Sc1ccnnc1 [Compound 30A] ?
OUT: 5.82
